System: K98450-129-R-PDC multicell spheroids, viability
Assay: Anticancer human tumor K98450-129-R-PDC patient-derived colon adenocarcinoma cell line growth inhibition [PI3K]; active = viability on the fitted dose curve at most 10% of control; inactive = the rest
Settings: second compound 10 µM; first compound 10 µM
Form entry, call: pick from active, inactive

• Cn1ncc(Cl)c1-c1cc(C(=O)NC(CN)Cc2cccc(F)c2)sc1Cl (stereo unspecified) + Cc1nc(NC(=O)N2CCCC2C(N)=O)sc1-c1ccnc(C(C)(C)C(F)(F)F)c1 = inactive
• CCCS(=O)(=O)Nc1ccc(F)c(C(=O)c2c[nH]c3ncc(-c4ccc(Cl)cc4)cc23)c1F + CC(Nc1ncnc2nc[nH]c12)c1cc2cccc(Cl)c2c(=O)n1-c1ccccc1 = active
• Cn1ncc(Cl)c1-c1cc(C(=O)NC(CN)Cc2cccc(F)c2)sc1Cl (stereo unspecified) + CC(Nc1ncnc2nc[nH]c12)c1cc2cccc(Cl)c2c(=O)n1-c1ccccc1 = inactive
• C#Cc1c(F)ccc2cc(O)cc(-c3ncc4c(N5CC6CCC(C5)N6)nc(OCC56CCCN5CC(F)C6)nc4c3F)c12 (stereo unspecified) + Cc1nc(NC(=O)N2CCCC2C(N)=O)sc1-c1ccnc(C(C)(C)C(F)(F)F)c1 = inactive

-- ask What classification did C=CC(=O)N1CCN(c2nc(=O)n(-c3c(C)ccnc3C(C)C)c3nc(-c4c(O)cccc4F)c(F)cc23)C(C)C1 (stereo unspecified) + CC(Nc1ncnc2nc[nH]c12)c1cc2cccc(Cl)c2c(=O)n1-c1ccccc1 end up with in this test?
-- reply inactive

* * *

System: K98450-129-R-PDC multicell spheroids, viability
Experiment: Anticancer human tumor K98450-129-R-PDC cell line growth inhibition [PI3K];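 note: spheroids exposed to agents for seven days before read-out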
Conditions: second compound 1 µM; first compound 0.0316 µM; stronger effect = lower value
A collection of compounds and their measured viability, T/C
Give the value in % but do not write % after it.

Examples with their reported viability, T/C follow.
- CC(C)n1nc(-c2ccc3oc(N)nc3c2)c2c(N)ncnc21 + CC(Nc1ccc2c(c1)OCCn1cc(N3C(=O)OCC3C(F)F)nc1-2)C(N)=O: 80.9
- Cn1ncc(Cl)c1-c1cc(C(=O)NC(CN)Cc2cccc(F)c2)sc1Cl (stereo not drawn) + Cc1nc(NC(=O)N2CCCC2C(N)=O)sc1-c1ccnc(C(C)(C)C(F)(F)F)c1: 94

-- ask Returns the measured viability, T/C for the input compound. Input: CCN1CCN(Cc2ccc(Nc3ncc(F)c(-c4cc(F)c5nc(C)n(C(C)C)c5c4)n3)nc2)CC1 + CC(Nc1ccc2c(c1)OCCn1cc(N3C(=O)OCC3C(F)F)nc1-2)C(N)=O
-- reply 86.8

* * *

A collection of compounds and their measured viability, T/C
Test system: K98450-129-R-PDC multicell spheroids, viability
Assay: Anticancer human tumor K98450-129-R-PDC cell line growth inhibition [PI3K];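 note: spheroids exposed to agents for seven days before read-out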
Conditions: second compound 3.16 µM; first compound 0.0316 µM; stronger effect = lower value
Give the value in % but do not write % after it.

* CCN1CCN(Cc2ccc(Nc3ncc(F)c(-c4cc(F)c5nc(C)n(C(C)C)c5c4)n3)nc2)CC1 + CC(Nc1ncnc2nc[nH]c12)c1cc2cccc(Cl)c2c(=O)n1-c1ccccc1 | 81.1

-- ask Returns the measured viability, T/C for the input compound. Input: CC(=O)c1c(C)c2cnc(Nc3ccc(N4CCNCC4)cn3)nc2n(C2CCCC2)c1=O + Cc1nc(NC(=O)N2CCCC2C(N)=O)sc1-c1ccnc(C(C)(C)C(F)(F)F)c1
-- reply 92.1

Data provenance: PubChem BioAssay AID1963961
